# target-system: GVIA iPLA2 (Homo sapiens, UniProt O60733)
# Sequence (O60733 1-806): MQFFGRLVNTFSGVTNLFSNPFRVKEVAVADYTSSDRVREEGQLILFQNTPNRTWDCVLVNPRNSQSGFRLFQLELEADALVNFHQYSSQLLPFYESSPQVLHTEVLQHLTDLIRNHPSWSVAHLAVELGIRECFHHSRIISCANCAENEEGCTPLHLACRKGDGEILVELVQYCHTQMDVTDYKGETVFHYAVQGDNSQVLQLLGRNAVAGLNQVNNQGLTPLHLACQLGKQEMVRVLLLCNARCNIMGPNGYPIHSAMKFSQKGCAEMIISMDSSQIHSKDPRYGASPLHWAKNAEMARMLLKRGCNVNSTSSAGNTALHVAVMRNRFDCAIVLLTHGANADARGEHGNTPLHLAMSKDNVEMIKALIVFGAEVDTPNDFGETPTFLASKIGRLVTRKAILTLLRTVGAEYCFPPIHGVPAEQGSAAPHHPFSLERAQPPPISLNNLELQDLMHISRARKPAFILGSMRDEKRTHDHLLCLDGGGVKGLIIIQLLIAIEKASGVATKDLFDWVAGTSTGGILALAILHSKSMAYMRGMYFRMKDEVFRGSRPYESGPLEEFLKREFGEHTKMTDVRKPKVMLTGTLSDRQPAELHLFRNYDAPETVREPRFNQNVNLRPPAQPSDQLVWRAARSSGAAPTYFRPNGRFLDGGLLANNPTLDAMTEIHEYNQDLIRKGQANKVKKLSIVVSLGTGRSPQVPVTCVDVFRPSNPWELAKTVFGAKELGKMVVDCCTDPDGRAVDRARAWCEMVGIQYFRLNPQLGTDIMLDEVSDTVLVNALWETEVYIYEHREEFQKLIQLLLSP
pIC50: −log10 of the molar value.
readout: pIC50

chemical-string	recorded-value
CCCCCCCCSCC(=O)C(F)(F)F	6.96
